Test system: PC-3 prostate
Assay: NCI tumour cell line growth inhibition, 48 h
property: TGI (µM)
Numbers only; they are read as µM.

Form: item "CCN(CC)c1c(N(CC)CC)c(=O)c1=O" ; test system PC-3 prostate; TGI: 46.4

---

System: NCI-H226 lung
Assay: NCI tumour cell line growth inhibition, 48 h
Label label 1 for high-side TGI (at or above 50 µM) and label 0 for low-side TGI (below it).

Field: example entries. Status: answers known.
compound	assigned-category
COC(=O)C1=C(c2ccc3c(c2)OCO3)O[C@H](c2cc(OC)c(OC)c(OC)c2)[C@H]1COC(C)=O	label 1
O=[N+]([O-])c1ccccc1S(=O)(=O)c1cc(Cl)cc2c1NCCC2	label 1
CC/C(=C(/c1ccc(OCCN(C)C)cc1)c1ccc(OC(=O)CCCCC(=O)c2c(C)[nH]c(/C=C3\N=C(c4ccc[nH]4)C=C3OC)c2C)cc1)c1ccccc1	label 0
C=C(C=O)[C@@H]1C2OC(=O)C(=C)[C@@H]2CC(O)[C@@]1(C)CC (stereo not given in full)	label 1
NC(Cc1cccc([N+](=O)[O-])c1)C(=O)O (stereo not given)	label 1
Cc1cc(Br)cc(C)c1NC(=O)C(=O)C(C(=O)c1ccc2ccccc2c1)C1OC(=O)c2ccccc21 (stereo not given)	label 0
CCSc1n/c(=C\c2ccco2)c2nnnn12	label 1
Cc1ccc(NC(=O)c2c(C)nc(=O)n3c2N(/N=C/c2ccc(Cl)cc2)CC3)cc1	label 0

Next item in the queue.
# check: TGI of "Cc1nc2ccccc2c(=O)n1NC(=O)c1ccc(CS)cc1" is greater than or equal to 50 µM label 0
